Molecular target: L. pyrrhocoris catalase (Leptomonas pyrrhocoris)
Sequence (A0A0M9FX30 entry or part of it): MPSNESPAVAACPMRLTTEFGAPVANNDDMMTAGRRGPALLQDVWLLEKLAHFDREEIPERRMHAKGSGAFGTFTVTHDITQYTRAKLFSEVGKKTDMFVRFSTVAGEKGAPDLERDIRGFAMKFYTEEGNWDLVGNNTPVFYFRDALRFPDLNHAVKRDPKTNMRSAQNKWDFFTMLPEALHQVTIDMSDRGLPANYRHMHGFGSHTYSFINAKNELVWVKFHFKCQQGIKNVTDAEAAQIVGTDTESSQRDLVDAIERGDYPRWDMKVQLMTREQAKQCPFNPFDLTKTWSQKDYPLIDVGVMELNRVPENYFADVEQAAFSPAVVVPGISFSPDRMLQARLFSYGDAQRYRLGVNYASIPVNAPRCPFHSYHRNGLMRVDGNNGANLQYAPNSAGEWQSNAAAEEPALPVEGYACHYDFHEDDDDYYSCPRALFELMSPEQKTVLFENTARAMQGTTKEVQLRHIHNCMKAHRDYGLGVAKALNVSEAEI
propertyLabel: IC50 (mM)

1) Nc1nc[nH]n1 10.4

* * *

Molecular target: Blastocrithidia sp. catalase
Conditions: 15 mM H2O2, 50 mM potassium phosphate pH 7, 1 min preincubation; read-out: 3-AT IC50
pIC50: −log10 of the molar value.
propertyLabel: pIC50

1) Nc1nc[nH]n1 1.81

* * *

Target: V. ingenoplastis catalase
Settings: 15 mM H2O2, 50 mM potassium phosphate pH 7, 1 min preincubation; read-out: 3-AT IC50
pIC50: −log10 of the molar value.
propertyLabel: pIC50

1. Nc1nc[nH]n1 1.94
